# Subject Of Test: α4β7 (Homo sapiens, UniProt P13612+P26010)
# Construct: endogenous in cells; host or cells: RPMI 8866 cells
# Experimental Details: Cell adhesion assay, RPMI8866 cells on MAdCAM coated plates (Example 7)
# Assay type: cell-based
# Applied Conditions: RPMI8866 cells adhering to recombinant human MAdCAM; Table 3; read-out: CA Assay (Example 7)
# Source text: Three in vitro assays were used to examine the α4β7 mechanistic process used by cells: 1) ligand:receptor affinity, 2) the avidity of those interactions on a cell's surface, and 3) how those interactions fare under an imposing force. In Example 5, a Fluorescence Polarization (FP) assay is used to measure compound activity through binding competition with the fluorescein-labeled peptide. […] Unattached cells are removed and the remaining adherent cells are quantified. […]
Below, each of the molecules is paired with its reported IC50 value.
Quantity Kind: IC50

{"Molecule": "COC1CN(CCc2cn([C@H](CC(C)C)C(=O)N[C@@H](CC(=O)O)c3cc(-c4c(C)cccc4C)cc(Cl)c3F)c(=O)cc2C(F)(F)F)C1 [W-P2]", "Quantity Kind": "IC50", "Recorded Measurement": "< 5 nM"}
{"Molecule": "Cc1cccc(C)c1-c1cc([C@H](CC(=O)O)NC(=O)C(CC(C)C)n2cc(CCN3CCC3)c(C(F)(F)F)cc2=O)c(F)c(C(F)(F)F)c1 (single isomer, unassigned) [G-P2]", "Quantity Kind": "IC50", "Recorded Measurement": "< 5 nM"}
{"Molecule": "COc1ccc(C)c(-c2cc(C)c(F)c([C@H](CC(=O)O)NC(=O)C(CC(C)C)n3cc(CCN4CCC4)c(C(F)(F)F)cc3=O)c2)c1C (single isomer, unassigned) [AG-P2]", "Quantity Kind": "IC50", "Recorded Measurement": "< 5 nM"}

----------
Below, each of the compounds is paired with its reported IC50 value.
# Subject Of Test: α4β7 (Homo sapiens, UniProt P13612+P26010)
# Construct: endogenous in cells; host or cells: RPMI 8866 cells
# Sequence (P13612 34-1032): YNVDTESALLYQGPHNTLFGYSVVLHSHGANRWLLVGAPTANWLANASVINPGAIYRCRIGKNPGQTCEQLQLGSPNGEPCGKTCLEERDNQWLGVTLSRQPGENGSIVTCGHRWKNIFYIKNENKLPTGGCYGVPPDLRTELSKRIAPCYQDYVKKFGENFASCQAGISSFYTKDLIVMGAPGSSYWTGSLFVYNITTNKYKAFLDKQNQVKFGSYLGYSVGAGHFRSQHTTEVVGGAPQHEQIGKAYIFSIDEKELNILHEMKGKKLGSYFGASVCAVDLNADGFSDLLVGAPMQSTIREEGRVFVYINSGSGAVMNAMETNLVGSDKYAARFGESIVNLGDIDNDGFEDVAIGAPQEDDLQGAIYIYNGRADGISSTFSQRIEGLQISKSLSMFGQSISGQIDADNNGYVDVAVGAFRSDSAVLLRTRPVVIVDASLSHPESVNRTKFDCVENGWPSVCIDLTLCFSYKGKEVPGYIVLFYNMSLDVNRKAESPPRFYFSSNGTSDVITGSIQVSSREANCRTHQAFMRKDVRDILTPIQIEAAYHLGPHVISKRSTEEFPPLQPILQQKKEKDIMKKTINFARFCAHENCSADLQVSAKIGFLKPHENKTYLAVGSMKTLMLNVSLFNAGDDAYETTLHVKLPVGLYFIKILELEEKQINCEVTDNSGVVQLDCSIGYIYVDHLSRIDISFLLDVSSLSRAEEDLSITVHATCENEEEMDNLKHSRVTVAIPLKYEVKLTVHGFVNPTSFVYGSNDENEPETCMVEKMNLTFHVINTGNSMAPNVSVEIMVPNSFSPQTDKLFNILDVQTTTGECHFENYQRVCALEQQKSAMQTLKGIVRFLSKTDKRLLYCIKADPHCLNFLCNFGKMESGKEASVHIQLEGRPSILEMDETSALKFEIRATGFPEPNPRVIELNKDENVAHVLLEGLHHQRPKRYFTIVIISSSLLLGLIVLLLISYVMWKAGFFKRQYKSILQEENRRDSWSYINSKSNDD
# Sequence (P26010 20-798): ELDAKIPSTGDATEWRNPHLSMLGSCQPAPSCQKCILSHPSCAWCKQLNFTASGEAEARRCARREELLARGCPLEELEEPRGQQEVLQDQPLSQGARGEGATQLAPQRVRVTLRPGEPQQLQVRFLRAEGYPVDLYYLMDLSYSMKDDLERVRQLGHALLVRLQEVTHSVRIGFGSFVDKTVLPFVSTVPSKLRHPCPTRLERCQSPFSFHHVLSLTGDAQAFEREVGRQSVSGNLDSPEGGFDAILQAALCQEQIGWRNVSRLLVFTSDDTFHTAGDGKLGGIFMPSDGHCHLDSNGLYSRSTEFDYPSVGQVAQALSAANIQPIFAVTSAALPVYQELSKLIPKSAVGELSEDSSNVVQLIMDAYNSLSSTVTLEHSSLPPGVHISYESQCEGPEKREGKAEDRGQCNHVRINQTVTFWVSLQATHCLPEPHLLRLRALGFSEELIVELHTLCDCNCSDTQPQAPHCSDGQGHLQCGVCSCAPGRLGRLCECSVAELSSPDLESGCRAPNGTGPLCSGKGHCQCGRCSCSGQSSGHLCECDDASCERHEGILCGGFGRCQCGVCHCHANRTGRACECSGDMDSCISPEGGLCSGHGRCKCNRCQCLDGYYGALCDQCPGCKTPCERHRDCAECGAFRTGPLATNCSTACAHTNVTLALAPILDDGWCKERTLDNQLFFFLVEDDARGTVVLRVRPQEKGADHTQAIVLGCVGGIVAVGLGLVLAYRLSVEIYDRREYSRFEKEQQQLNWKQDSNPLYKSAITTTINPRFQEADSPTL
# Experimental Details: Cell-based MAdCAM-1 ligand binding assay (LBA) on RPMI 8866 cells (Example 6)
# Applied Conditions: MAdCAM-1-Fc Dylight 650, 3 mM manganese chloride, flow cytometry, Table 4 comparative compounds, read-out: LB Assay (Example 6)

{"Compound": "Cc1cccc(C)c1-c1cccc([C@H](CC(=O)O)NC(=O)[C@H](CC(C)C)n2cc(CN3CC(F)C3)ccc2=O)c1 [drawing 604]", "IC50": "< 10 nM"}
{"Compound": "CC(C)C[C@@H](C(=O)N[C@@H](CC(=O)O)c1ccc(-c2ccccc2)cc1)n1cc(CCN2CC(F)C2)cc(F)c1=O", "IC50": "10 to 500 nM"}
{"Compound": "Cc1cccc(C)c1-c1cccc([C@H](CC(=O)O)NC(=O)[C@H](CC(C)C)n2cccc(CCN(C)C)c2=O)c1", "IC50": "10 to 500 nM"}
{"Compound": "Cc1cccc(C)c1-c1cccc([C@H](CC(=O)O)NC(=O)[C@H](CC(C)C)n2cc(CN3CC(F)C3)ccc2=O)c1 [drawing 572]", "IC50": "< 10 nM"}
{"Compound": "Cc1cccc(C)c1-c1cccc([C@H](CC(=O)O)NC(=O)[C@H](CC(C)C)n2cc(CN3CC(F)C3)ccc2=O)c1 [drawing 589]", "IC50": "< 10 nM"}
{"Compound": "COC[C@@H](C(=O)N[C@@H](CC(=O)O)c1cccc(-c2c(C)cccc2C)c1)n1ccc(C)cc1=O", "IC50": "10 to 500 nM"}
{"Compound": "Cc1cccc(C)c1-c1cncc([C@H](CC(=O)O)NC(=O)[C@H](CC(C)C)n2ccc(C(F)(F)F)cc2=O)c1", "IC50": "< 10 nM"}
{"Compound": "Cc1cccc(C)c1-c1cccc([C@H](CC(=O)O)NC(=O)[C@H](CC(C)C)n2cc(CN3CC(F)C3)ccc2=O)c1 [drawing 577]", "IC50": "< 10 nM"}

----------
# Subject Of Test: integrin α4β7 (Homo sapiens, UniProt P13612+P26010)
# Sequence (P13612 35-977 limits assumed): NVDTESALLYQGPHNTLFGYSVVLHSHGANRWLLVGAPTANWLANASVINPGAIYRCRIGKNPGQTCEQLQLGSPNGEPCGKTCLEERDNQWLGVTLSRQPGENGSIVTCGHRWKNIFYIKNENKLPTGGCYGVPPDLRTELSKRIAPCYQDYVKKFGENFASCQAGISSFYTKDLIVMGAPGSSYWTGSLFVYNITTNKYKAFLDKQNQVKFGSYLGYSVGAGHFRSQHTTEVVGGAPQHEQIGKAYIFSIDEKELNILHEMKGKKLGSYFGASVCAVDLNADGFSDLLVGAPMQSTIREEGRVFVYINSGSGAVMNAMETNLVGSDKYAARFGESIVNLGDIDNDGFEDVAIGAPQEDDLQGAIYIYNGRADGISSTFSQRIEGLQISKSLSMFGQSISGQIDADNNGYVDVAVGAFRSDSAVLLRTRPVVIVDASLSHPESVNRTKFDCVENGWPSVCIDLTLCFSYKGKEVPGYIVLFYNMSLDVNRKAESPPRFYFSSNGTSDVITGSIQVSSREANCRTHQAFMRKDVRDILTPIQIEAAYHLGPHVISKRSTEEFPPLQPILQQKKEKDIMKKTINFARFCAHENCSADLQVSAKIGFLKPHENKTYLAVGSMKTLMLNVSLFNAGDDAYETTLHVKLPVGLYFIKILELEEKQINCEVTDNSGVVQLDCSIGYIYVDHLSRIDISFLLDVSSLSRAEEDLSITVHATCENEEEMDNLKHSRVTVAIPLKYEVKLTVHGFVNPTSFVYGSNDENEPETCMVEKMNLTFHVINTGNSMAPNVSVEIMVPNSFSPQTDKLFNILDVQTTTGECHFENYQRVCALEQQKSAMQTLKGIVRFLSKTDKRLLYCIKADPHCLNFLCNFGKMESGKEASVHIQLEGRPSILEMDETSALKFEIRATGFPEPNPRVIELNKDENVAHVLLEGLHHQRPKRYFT
# Sequence (P26010 20-723 limits assumed): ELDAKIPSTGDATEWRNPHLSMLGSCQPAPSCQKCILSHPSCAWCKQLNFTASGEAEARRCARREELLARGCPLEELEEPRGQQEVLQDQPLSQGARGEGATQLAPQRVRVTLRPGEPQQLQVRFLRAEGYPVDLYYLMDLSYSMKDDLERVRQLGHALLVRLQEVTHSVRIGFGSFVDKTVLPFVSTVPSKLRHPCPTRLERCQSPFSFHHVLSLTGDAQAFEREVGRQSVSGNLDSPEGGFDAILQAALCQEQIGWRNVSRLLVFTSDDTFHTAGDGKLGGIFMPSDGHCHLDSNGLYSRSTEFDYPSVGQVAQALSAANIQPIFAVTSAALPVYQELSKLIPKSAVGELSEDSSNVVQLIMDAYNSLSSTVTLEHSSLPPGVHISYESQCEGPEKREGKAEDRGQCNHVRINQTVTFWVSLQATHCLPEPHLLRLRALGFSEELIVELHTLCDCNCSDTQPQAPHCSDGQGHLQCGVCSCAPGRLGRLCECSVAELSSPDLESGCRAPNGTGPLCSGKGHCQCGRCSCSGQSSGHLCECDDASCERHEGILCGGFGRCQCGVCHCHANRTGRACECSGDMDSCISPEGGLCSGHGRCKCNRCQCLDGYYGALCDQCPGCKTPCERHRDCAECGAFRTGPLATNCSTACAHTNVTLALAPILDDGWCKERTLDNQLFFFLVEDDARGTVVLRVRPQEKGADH
# Experimental Details: Fluorescence polarization (FP) assay for α4β7 binding (Example 5)
# Applied Conditions: competition with fluorescein-labeled peptide, 6.5 nM integrin α4β7, 2 mM manganese chloride; Table 4 comparative compounds
# Description: Compounds of Formula (I) were evaluated using a fluorescent polarization (FP) assay. FP assays are used to evaluate potency of compounds on purified protein. […] Three in vitro assays were used to examine the α4β7 mechanistic process used by cells: 1) ligand:receptor affinity, 2) the avidity of those interactions on a cell's surface, and 3) how those interactions fare under an imposing force. […] Unattached cells are removed and the remaining adherent cells are quantified. […]
pIC50: −log10 of the molar value.
Quantity Kind: pIC50

{"Compound": "Cc1cccc(C)c1-c1cncc([C@H](CC(=O)O)NC(=O)[C@H](CC(C)C)n2ccc(C(F)(F)F)cc2=O)c1", "Recorded Measurement": "≥ 8.00"}
{"Compound": "Cc1cccc(C)c1-c1cncc([C@H](CC(=O)O)NC(=O)[C@H](CC(C)C)n2cc(CN3CC(F)C3)ccc2=O)c1", "Recorded Measurement": "≥ 8.00"}
{"Compound": "Cc1ccccc1-c1cccc([C@H](CC(=O)O)NC(=O)[C@H](CC(C)C)n2cccc(C)c2=O)c1", "Recorded Measurement": "≥ 8.00"}
{"Compound": "Cc1cccc(C)c1-c1cncc([C@H](CC(=O)O)NC(=O)C(CC(C)C)n2cc(C(F)(F)F)ccc2=O)c1 (stereo partly drawn)", "Recorded Measurement": "≥ 8.00"}
{"Compound": "CC(C)C[C@@H](C(=O)N[C@@H](CC(=O)O)c1ccc(-c2ccccc2)cc1)n1cc(CCN2CC(F)C2)cc(F)c1=O", "Recorded Measurement": "≥ 8.00"}
{"Compound": "Cc1cccc(C)c1-c1cc([C@H](CC(=O)O)NC(=O)[C@H](CC(C)C)n2ccccc2=O)ccn1", "Recorded Measurement": "6.30 to 8.00"}
{"Compound": "CC(C)C[C@@H](C(=O)N[C@@H](CC(=O)O)c1ccc(-c2ccc(F)cc2)cc1)n1cc(CCN2CC(F)C2)cc(F)c1=O", "Recorded Measurement": "≥ 8.00"}
{"Compound": "Cc1cccc(C)c1-c1cccc([C@H](CC(=O)O)NC(=O)[C@H](CC(C)C)n2cc(CN3CC[C@@H](F)C3)ccc2=O)c1", "Recorded Measurement": "≥ 8.00"}
{"Compound": "Cc1cccc(C)c1-c1cccc([C@H](CC(=O)O)NC(=O)[C@H](CC(C)C)n2cccc(CCN(C)C)c2=O)c1", "Recorded Measurement": "≥ 8.00"}
{"Compound": "Cc1cccc(C)c1-c1cccc([C@H](CC(=O)O)NC(=O)[C@H](CC(C)C)n2cc(CN3CC(F)C3)ccc2=O)c1 [drawing 604]", "Recorded Measurement": "≥ 8.00"}
{"Compound": "Cc1cccc(C)c1-c1cccc([C@H](CC(=O)O)NC(=O)[C@H](CC(C)C)n2ccc(CCN(C)C)cc2=O)c1", "Recorded Measurement": "≥ 8.00"}
{"Compound": "Cc1cccc(C)c1-c1cccc([C@H](CC(=O)O)NC(=O)[C@H](CC(C)C)n2cc(CN3CC(F)C3)ccc2=O)c1 [drawing 599]", "Recorded Measurement": "≥ 8.00"}
{"Compound": "Cc1ccccc1-c1cc([C@H](CC(=O)O)NC(=O)C(CC(C)C)n2ccccc2=O)ccn1 (stereo partly drawn)", "Recorded Measurement": "6.30 to 8.00"}
{"Compound": "Cc1cccc(C)c1-c1cncc([C@@H](CC(=O)O)NC(=O)[C@H](CC(C)C)n2ccccc2=O)c1", "Recorded Measurement": "< 6.30"}
{"Compound": "Cc1cccc(C)c1-c1cccc([C@H](CC(=O)O)NC(=O)[C@H](CC(C)C)n2cc(CN3CC(F)C3)ccc2=O)c1 [drawing 594]", "Recorded Measurement": "≥ 8.00"}
